Tested on: KM12 colon
assayText: NCI tumour cell line growth inhibition, 48 h
reportedEndpoint: TGI

- compound: "CCOP(=O)(CC1OC(CO)C(O)C1O)OCC (centres undefined)"
  reportedEndpoint: "TGI"
  experimentalResult: "> 100 µM"
- compound: "O=C1OC(c2ccc(Cl)c3ccccc23)c2ccccc21 (centres undefined)"
  reportedEndpoint: "TGI"
  experimentalResult: "> 100 µM"
- compound: "CC[C@H](C)[C@H](NC(=O)N[C@@H](C)c1ccccc1)C(=O)N(C)[C@H](C[C@@H](OC(C)=O)c1nc(C(=O)N[C@@H](Cc2ccccc2)C[C@H](C)C(=O)OC)cs1)C(C)C"
  reportedEndpoint: "TGI"
  experimentalResult: "84.3 µM"
- compound: "COC(=O)C1=C(C(=O)OC)C(C(=O)OC)C(C(=O)OC)C(C(=O)OC)(C(=O)OC)C(C(=O)OC)=C1C(=O)OC (centres undefined)"
  reportedEndpoint: "TGI"
  experimentalResult: "31.3 µM"
- compound: "Cc1cccc2c(N)c3cccc(C(=O)NCC[N+](C)(C)[O-])c3nc12"
  reportedEndpoint: "TGI"
  experimentalResult: "> 100 µM"
- compound: "COC(=O)C1=C(C(=O)OC)N(C(C)C)[C@H]2C(C(=O)OC)=C(C(=O)OC)N(C(C)C)[C@@H]12"
  reportedEndpoint: "TGI"
  experimentalResult: "> 100 µM"
- compound: "CC12CCC(=O)[C@@]1(C)CCCC2=O (some centres undefined)"
  reportedEndpoint: "TGI"
  experimentalResult: "> 100 µM"
- compound: "Fc1cccc(F)c1C1SCc2nc3cc(Cl)ccc3n21 (centres undefined)"
  reportedEndpoint: "TGI"
  experimentalResult: "72.9 µM"
- compound: "COc1ccc2nc3cc(Cl)ccc3c(Nc3ccc(O)c(CN4CCCC4)c3)c2c1"
  reportedEndpoint: "TGI"
  experimentalResult: "> 100 µM"

---

Test system: SF-268 CNS
assayText: NCI tumour cell line growth inhibition, 48 h

- molecule: "COc1cc2c3c(c1OC)/C(=N/OS(=O)(=O)c1ccc(C)cc1)CC3N(S(=O)(=O)c1ccc(C)cc1)CC2 (centres undefined)"
  TGI: "> 100 µM"
- molecule: "C(/C=C/N1CCCC1)=C\\c1nc(N2CCCC2)c2ccccc2n1"
  TGI: "41.7 µM"
- molecule: "COc1cc(-c2nn3c(=O)n(-c4ccc(Cl)cc4)c(=O)nc3s2)cc(OC)c1OC"
  TGI: "> 100 µM"
- molecule: "CC(C)(C)[Si](C)(C)OC1CCOC1(O)c1ccccn1 (centres undefined)"
  TGI: "> 100 µM"
- molecule: "COC(=O)C1=C(C(=O)OC)C(C(=O)OC)C(C(=O)OC)C(C(=O)OC)(C(=O)OC)C(C(=O)OC)=C1C(=O)OC (centres undefined)"
  TGI: "42.3 µM"
- molecule: "O=C1c2cccnc2C(=O)c2c1nc1ccccc1c2-c1ccc2c3c(nc4ccccc42)C(=O)c2cccnc2-c13"
  TGI: "6.46 µM"
- molecule: "O=C(Nc1nc2ccc(F)cc2s1)c1cccnc1Nc1ccc(Cl)cc1Cl"
  TGI: "16.3 µM"
- molecule: "CC(C)(C)c1cc(C(=O)O)c(C(c2ccccc2)c2ccccc2C(=O)O)c(C(=O)O)c1 (centres undefined)"
  TGI: "> 100 µM"
- molecule: "C1=CC=C2NCCSCCNC3=CC=CC=CC3=NCCSCCN=C2C=C1"
  TGI: "> 100 µM"
- molecule: "CN1C2CCC1C(CO)C(=O)C2 (centres undefined)"
  TGI: "> 100 µM"
- molecule: "Cc1nn(C(=O)c2ccccc2O)c2c1C(c1ccc([N+](=O)[O-])cc1)SC(N)=N2 (centres undefined)"
  TGI: "> 10 µM"
- molecule: "N#CC1=C(N)NC(=S)C(C#N)C12Nc1ccccc1S2 (centres undefined)"
  TGI: "42.9 µM"
- molecule: "CC1CCc2sc3[nH]c(=S)n(C)c(=O)c3c2C1 (centres undefined)"
  TGI: "> 100 µM"
- molecule: "C=CCN(N=O)C(=O)ON1C(=O)CCC1=O"
  TGI: "> 100 µM"
- molecule: "CCC(C)C(NC(=O)C(CCCC[N+](=N)N)NC(=O)C(CCCC[N+](=N)N)NC(=O)c1ccc(OC)cc1)C(=O)NC(CCCC[N+](=N)N)C(=O)N1CCCC1C(=O)NC(CCCCN)C(=O)NC(CC(C)C)C(N)=O (centres undefined)"
  TGI: "> 100 µM"
- molecule: "CCC1(Cl)C(=O)NC(=O)N(C2CC(O)C(CO)O2)C1N=[N+]=[N-] (centres undefined)"
  TGI: "> 100 µM"
- molecule: "C=C[C@@]1(C)CC(=O)[C@]2(O)[C@@]3(C)[C@@H](O)CCC(C)(C)[C@@H]3[C@H](O)[C@@H](OC(C)=O)[C@@]2(C)O1"
  TGI: "> 100 µM"
- molecule: "O=c1ncccn1C1OC(CO)C(O)C1F (centres undefined)"
  TGI: "> 100 µM"
- molecule: "CC1=NN(c2cccc(Cl)c2)C2(C1=Cc1ccc(N(C)C)cc1)C(Cl)C(=O)N2c1nc2ccccc2s1 (centres undefined)"
  TGI: "52.4 µM"
